# Target or system: T1, CD300c抗原(11832-H08H，义翘神州) (UniProt Q08708)
# T1 sequence (looked up): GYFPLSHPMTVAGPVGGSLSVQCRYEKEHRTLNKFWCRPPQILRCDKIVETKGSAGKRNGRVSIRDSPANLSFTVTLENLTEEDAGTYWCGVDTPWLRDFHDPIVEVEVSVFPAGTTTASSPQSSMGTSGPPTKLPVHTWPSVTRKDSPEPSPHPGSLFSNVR
# Assay method text: binding ELISA, CD300c antigen coated at 8 μg/mL, HRP anti-Fc IgG
EC50 by entry:

{"columns": ["Binder", "EC50 (µg/mL)"],
 "data": [
  ["抗CD300c单克隆抗体 CL4 (antibody, from another filing, V domains shown) VH: RVQLLESGGGLVQPGGSLRLSCAASGFTFGSNYMSWVRQAPGKGLEWVSTISGSGTSTYYADSLKGRFTISRDNSKNTLYLQMNSLRAEDTAVYYCARGMWGMDVWGQGTLVTVSS VL: QSVLTQPPSASGTPGQRVTISCTGKHRHTVNWYQLLPGTAPKLLIYLDSERPSGVPDRFSGSKSGTSASLAISGLRSEDEADYYCQSYDSSSVVFGGGTKLTVL", 0.031],
  ["抗CD300c单克隆抗体 CL6 (antibody, from another filing, V domains shown) VH: EVQLLESGGGLVQPGGSLRLSCAASGFTFSSYGMHWVRQAPGKGLEWVSAISGSGGSTYYADSVKGRFTISRDNSKNTLYLQMNSLRAEDTAVYYCAVSGAGRGFFDYWGQGTLVTVSS VL: QSVLTQPPSASGTPGQRVTISCSGSSSNIGSNYVYWYQQLPGTAPKLLIYEDNKRPSGVPDRFSGSKSGTSASLAISGLRSEDEADYYCSSYTSSSTVIFGGGTKLTVL", 0.148]
]}
